FYI, the data here is from ChEMBL document CHEMBL1201862.

# System: HCT-15
// NB: equality with 20 µM counts as -1; only GI50 strictly below is 1

Reference set (3 entries):
molecule	discrete_label
CNc1ncnc2c1cnn2Cc1cn(CCCCO)nn1	-1
CC1NC(C(=O)O)Cc2cc(O)c(O)cc21 (stereo not given)	-1
CC(=O)Nc1ccc(/C=C/C(=O)N2CC(CCl)c3c2cc(N)c2ccccc32)cc1 (stereo not given)	1

**Q:** Regarding O=C1CSC(c2ccccc2)N1c1ccc(-c2ccc(-n3c(-c4ccccc4)nc4ccccc4c3=O)cc2)cc1 (stereo not given) , kindly confirm whether its GI50 is beneath 20 µM.
**A:** -1

**Q:** Field entry: O=c1cccccc1NCCCNc1cccccc1=O
**A:** -1

**Q:** Field entry: COC(=O)C(Cc1nc2ccccc2nc1O)C(=O)C(=O)Nc1cc(C(F)(F)F)ccc1Cl (stereo not given)
**A:** 1

**Q:** Field entry: Clc1ccc(/C=C/c2csnn2)cc1
**A:** -1

**Q:** Field entry: Cc1cccc(/C(Br)=C2/OC(=O)c3ccccc32)c1
**A:** -1

**Q:** Field entry: COC1=CC(C)C2C[C@H]3O[C@H](O)C[C@H]4C(C)C(=O)C(O)C([C@@]2(C)C1=O)[C@@]34C (stereo not given in full)
**A:** -1

**Q:** Field entry: Cc1ccc([S+]([O-])(=Nc2ccccc2)C(C(C)C)C(C)(C)Cl)cc1 (stereo not given)
**A:** 1

**Q:** Field entry: Cn1ncc2c(NCCc3ccccc3)nc(Cl)nc21
**A:** -1

**Q:** Field entry: COc1cccc2c(Nc3ccc(S(=O)(=O)NC(C)=O)cc3)c3ccc([N+](=O)[O-])cc3nc12
**A:** -1

**Q:** Field entry: CN(C)c1ccc(/C=C/C(=O)c2ccccc2)cc1Br
**A:** -1

**Q:** Field entry: CCCCCCCCCCCCCC(=O)CSCCNC(=O)CCNC(=O)[C@@H](O)C(C)(C)COP(=O)(O)OP(=O)(O)OCC1OC(n2cnc3c(N)ncnc32)C(O)C1OP(=O)(O)O (stereo not given in full)
**A:** 1

**Q:** Field entry: CC(C)=CCc1c(O)c(CC=C(C)C)c2oc3c(c(=O)c2c1O)C(C=C(C)C)Oc1cc(O)ccc1-3 (stereo not given)
**A:** 1

----------
Documented GI50 across a set of compounds
# Test system: SW-620
# test_protocol: NCI tumour cell line growth inhibition, 48 h
Activity calls are given as the source filed them. Rule as the data show it: active = GI50 up to about 1.1 µM and inactive = higher.

Guide cases for GI50, answers given:
compound	value_type	result
O=[N+]([O-])/C(C(Cl)=C(Cl)Cl)=C(/Cl)SCc1ccccc1	GI50	2.18 µM (inactive)
CC(=O)/C(C)=N/NC(=O)c1ccccc1O	GI50	> 10 µM (inactive)
COc1ccc([I+]c2ccc(OC)cc2)cc1	GI50	> 91.8 µM (inactive)

**Q:** Recorded GI50 for COc1ccc(C2SC(=N)Nc3c2c(C)nn3C(=O)c2ccncc2)cc1 (stereo not given) , please?
**A:** > 100 µM (inactive)

**Q:** Field entry: CCCC(=O)OC[n+]1ccc2c(C)c3[nH]c4ccc(OC)cc4c3c(C)c2c1
**A:** 0.0692 µM (active)

**Q:** Field entry: COC(=O)C1CC(OC(C)=O)C=C2C(=O)CCC21 (stereo not given)
**A:** 20.3 µM (inactive)

**Q:** Field entry: O=C(O)c1ccc(Nc2nc3cc(C(F)(F)F)ccc3nc2-c2ccccc2)cc1
**A:** 17.2 µM (inactive)

----------
# Tested on: RPMI-8226
# test_protocol: NCI tumour cell line growth inhibition, 48 h
Calls of active or inactive are those of the source. Cut-off read from the data, not from the text of the source: active = GI50 up to about 1.1 µM and inactive = higher.
Documented GI50 across a set of compounds

Guide cases for GI50, answers given:
compound	GI50
CN1CCN(c2ccc3nc(C4=C(O)C(=O)c5c(nc(CCl)n5C)C4=O)[nH]c3n2)CC1	26 µM (inactive)
COC(=O)c1sc2nc(Nc3ccccc3)/c(=N\c3ccccc3)sc2c1C	> 100 µM (inactive)
O=C(Nc1ccccc1)OCCN=C1c2ccccc2CCc2ccccc21	12.8 µM (inactive)
O=C(Nc1nc2ccc([N+](=O)[O-])cc2s1)C(=O)C(C1OC(=O)c2ccccc21)[N+](=O)[O-] (stereo unspecified)	56.2 µM (inactive)
c1ccc(Cc2nc(Cc3n[nH]c(Cc4ccccc4)n3)n[nH]2)cc1	> 100 µM (inactive)

**Q:** Recorded GI50 for CC1(C)N=C(N)N=C(N)N1c1ccc(Cl)cc1 , please?
**A:** 6.81 µM (inactive)

**Q:** Field entry: CC(C(=O)[O-])S(=O)(=O)O.CCc1c2cc(OC)c(OC)cc2cc2c3cc(OC)c(OC)cc3cc[n+]12
**A:** 25.8 µM (inactive)

**Q:** Field entry: Fc1ccc2c3c([nH]c2c1)CCNC3
**A:** > 100 µM (inactive)

**Q:** Field entry: CC(=O)OCC(OC(C)=O)C(OC(C)=O)C(OC(C)=O)C(/C=N\Nc1nc2ccccc2c(=O)[nH]1)=N/Nc1nc2ccccc2c(=O)[nH]1 (stereo unspecified)
**A:** > 100 µM (inactive)

**Q:** Field entry: N#CSCC1COc2ccccc2O1 (stereo unspecified)
**A:** 4.98 µM (inactive)

**Q:** Field entry: CC(C)[Si](OCC1CC(C[C@H]2CC(C[C@H]3C[C@@H](CO[Si](C(C)C)(C(C)C)C(C)C)OC(C)(C)O3)OC(C)(C)O2)OC(C)(C)O1)(C(C)C)C(C)C (stereo partly specified)
**A:** > 100 µM (inactive)

**Q:** Field entry: Cc1ccc(-c2nc3ccccc3c(=O)n2NCC2(O)OCC(O)C(O)C2O)cc1 (stereo unspecified)
**A:** > 100 µM (inactive)

**Q:** Field entry: c1ccc(CC(Nc2cccnc2)c2ccccc2)cc1 (stereo unspecified)
**A:** 17 µM (inactive)

**Q:** Field entry: CC1(C)CCCC2OC2CCC(C)(C)C1=O (stereo unspecified)
**A:** > 100 µM (inactive)

**Q:** Field entry: CC(C)(C)OC(=O)NCCCCCCC(=O)Cc1ccccc1
**A:** > 100 µM (inactive)

**Q:** Field entry: N#CC1(C#N)[C@@H]2CCC=C(Sc3ccccc3)[C@@H]21
**A:** 12.9 µM (inactive)

**Q:** Field entry: N#Cc1cc2c(n(C3OC(CO)C(O)C(O)C3O)c1=S)CCCCCC2 (stereo unspecified)
**A:** > 100 µM (inactive)

**Q:** Field entry: C[N+](C)(C)CC(=O)N/N=C(/CC(=O)CC(C1=C(O)c2ccccc2OC1)c1ccccc1)C(=O)Nc1cccc(Cl)c1 (stereo unspecified)
**A:** > 100 µM (inactive)

**Q:** Field entry: Cc1ccc([S+]([O-])(=Nc2ccccc2)C(C(C)C)C(C)(C)Cl)cc1 (stereo unspecified)
**A:** 14 µM (inactive)

**Q:** Field entry: CC1CCCc2c1c1ccc3c(O)cccc3c1oc2=O (stereo unspecified)
**A:** 55.1 µM (inactive)

**Q:** Field entry: N#Cc1nc(CCc2nc(C#N)c(N)o2)oc1N
**A:** > 10 µM (inactive)

----------
Documented GI50 across a set of compounds
# Tested on: HCT-116
# test_protocol: NCI tumour cell line growth inhibition, 48 h
Activity calls are given as the source filed them. Cut-off read from the data, not from the text of the source: active = GI50 up to about 1.1 µM and inactive = higher.

**Q:** Recorded GI50 for c1ccc(/N=C(\N2CCOCC2)N(CCN2CCOCC2)c2ccccc2)cc1 , please?
**A:** 98.2 µM (inactive)

**Q:** Field entry: CCOC(=O)CCC(C(=O)OCC)n1nc2ccc(Nc3c(C)[n+]([O-])c4ccc(Cl)cc4[n+]3[O-])cc2n1 (stereo unspecified)
**A:** 20.6 µM (inactive)

----------
# Tested on: A498
# test_protocol: NCI tumour cell line growth inhibition, 48 h
The source made the active and inactive calls. Rule as the data show it: active = GI50 up to about 1.1 µM and inactive = higher.
// one of active, inactive, no free text

molecule	system_tested	discrete_label
CC(C)OP(=O)(OC(C)C)/C(Cl)=N/Nc1ccc([N+](=O)[O-])cc1	A498	inactive
C[C@H]1[C@@H]2C[C@@H]3O[C@@]34[C@H]3CCC5Cc6nc7c(nc6C[C@@]5(C)[C@]3(O)CC(=O)[C@@]24CO[C@]12OC(C)(C)C[C@@H]2O)CC1CC[C@@H]2C3=C[C@H]4O[C@@]5(OC(C)(CO)C[C@@H]5O)[C@H](C)[C@@]4(O)[C@]3(C)[C@@H](O)CC2[C@]1(C)C7 (stereo partly drawn)	A498	active

Now, please, on to the next molecule.
**Q:** Kindly provide the recorded test outcome for the following molecule: CCCCC/C(=N\c1[nH]cnc1C(N)=O)OCC
**A:** inactive

----------
# Test system: U-251
# test_protocol: NCI tumour cell line growth inhibition, 48 h
The source made the active and inactive calls. Rule as the data show it: active = GI50 up to about 1.1 µM and inactive = higher.
Documented GI50 across a set of molecules

**Q:** Recorded GI50 for Oc1ccc(O)c(CNc2ccc(C(O)C(F)(F)F)cc2)c1 (stereo not drawn) , please?
**A:** 35.8 µM (inactive)

**Q:** Field entry: CC(C)(C)C1=CC(O)(c2c3ccccc3c(C3(O)C=C(C(C)(C)C)C(=O)C(C(C)(C)C)=C3)c3ccccc23)C=C(C(C)(C)C)C1=O
**A:** > 100 µM (inactive)

**Q:** Field entry: CC1CCCc2c1c1ccc3c(O)cccc3c1oc2=O (stereo not drawn)
**A:** 33.8 µM (inactive)

**Q:** Field entry: CCN1CCC(O)(c2ccc(Oc3ccc(F)cc3)cc2)C(C(=O)c2ccc(Oc3ccc(F)cc3)cc2)C1 (stereo not drawn)
**A:** 16.2 µM (inactive)

**Q:** Field entry: Oc1ccc(/N=N/c2ccc(Cl)cc2)cc1
**A:** 15.4 µM (inactive)

**Q:** Field entry: Nc1ncnc2c1ncn2C1(CO)OC(CO)C(O)C1O (stereo not drawn)
**A:** > 100 µM (inactive)

**Q:** Field entry: CN1CCN(c2ncc3c(n2)sc2c(=O)n(-c4ccccc4)cnc23)CC1
**A:** > 100 µM (inactive)

**Q:** Field entry: COc1ccc2c3c(c(=O)n(C)c2c1OC)C=CC(C)(C)O3
**A:** 30.6 µM (inactive)

**Q:** Field entry: C=C(CCC/C(C)=C/C=C/[C@]1(C)CCCc2ccoc21)CC(=O)O
**A:** 68.4 µM (inactive)

**Q:** Field entry: COC(=O)C(CC=O)C(=O)C(=O)Nc1cccc(C(F)(F)F)c1 (stereo not drawn)
**A:** > 100 µM (inactive)

**Q:** Field entry: CC1(C)CCOC(=O)C(Cl)CC1Cl (stereo not drawn)
**A:** > 100 µM (inactive)

**Q:** Field entry: CC1(C)CC(C)(C)C1=NNC(N)=O
**A:** > 100 µM (inactive)

**Q:** Field entry: CC(=O)OC1COC(N2C(=O)C(=O)c3cc(Br)c([N+](=O)[O-])cc32)C(OC(C)=O)C1OC(C)=O (stereo not drawn)
**A:** > 100 µM (inactive)

**Q:** Field entry: N#CCN1CCCN(CC#N)CCN(CC#N)CCCN(CC#N)CC1
**A:** > 100 µM (inactive)

**Q:** Field entry: C/C(=C\c1ccc(Cl)cc1)C(C)(C)C(=O)O
**A:** > 100 µM (inactive)

**Q:** Field entry: c1ccc(CC(Nc2cccnc2)c2ccccc2)cc1 (stereo not drawn)
**A:** 19.5 µM (inactive)

**Q:** Field entry: COc1ccc(/C=[N+](\[O-])[C@H](COCc2ccccc2)c2ccccc2)cc1
**A:** > 100 µM (inactive)
